System: 377384-186-R-J1-PDC complex spheroid viability;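 note: luminescence signal used as a stand-in for viable cells; spheroids exposed to agents for 7 days before reading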
Assay: Anticancer human tumor 377384-186-R-J1-PDC patient-derived pancreatic carcinoma cell line growth inhibition [CLK]
Details: second compound 0.316 µM; first compound 1 µM; active compounds read low
Text: A high-throughput screen of multi-cell type tumor spheroids was designed to identify active combinations of […] and targeted small molecules. Complex spheroids include a stromal component modeled by human endothelial cells (HUVEC) and fibroblasts modeled by human mesenchymal stem cells (MSCs). […] Compounds. […] If the clinical Cmax for an agent had not been determined, the highest concentration tested was 10 microM. […]
viability, T/C values by entry

Compound	System Name	viability, T/C (%)
Nc1ccccc1NC(=O)c1ccc(CNC(=O)OCc2cccnc2)cc1 + CN1CCN(c2cc(C(=O)Nc3cc4cc(-c5cnn(C)c5)ccc4cn3)ccn2)CC1	377384-186-R-J1-PDC complex spheroid viability	19
CC(Nc1ccc2c(c1)OCCn1cc(N3C(=O)OCC3C(F)F)nc1-2)C(N)=O (stereo not given) + CNC(=O)c1ccc(Nc2nc(OC3CCCC3)c3c(-c4ccc5nc(C)oc5c4)c[nH]c3n2)c(OC)c1	377384-186-R-J1-PDC complex spheroid viability	15
CCN1CCN(Cc2ccc(Nc3ncc(F)c(-c4cc(F)c5nc(C)n(C(C)C)c5c4)n3)nc2)CC1 + CNC(=O)c1ccc(Nc2nc(OC3CCCC3)c3c(-c4ccc5nc(C)oc5c4)c[nH]c3n2)c(OC)c1	377384-186-R-J1-PDC complex spheroid viability	22.4
O=C(c1cc(Cc2n[nH]c(=O)c3ccccc23)ccc1F)N1CCN(C(=O)C2CC2)CC1 + CNC(=O)c1ccc(Nc2nc(OC3CCCC3)c3c(-c4ccc5nc(C)oc5c4)c[nH]c3n2)c(OC)c1	377384-186-R-J1-PDC complex spheroid viability	17.8
COc1c(OCCCN2CCOCC2)ccc2c3n(c(=NC(=O)c4cnc(N)nc4)nc12)CCN3 + CNC(=O)c1ccc(Nc2nc(OC3CCCC3)c3c(-c4ccc5nc(C)oc5c4)c[nH]c3n2)c(OC)c1	377384-186-R-J1-PDC complex spheroid viability	10.4
